Just for reference, PubChem BioAssay is where these values come from.

- Tested on: Lefty1
- Experiment summary: Lefty1 binders on small-molecule microarrays, primary screen, biochemical, small-molecule microarray, 635/667 nm fluorescence (AID 1139)
- Cond: small-molecule microarray binding, fluorescence 635/667; higher = more signal
Result type: composite z-score
No unit in the answer, only the number.

Below are worked cases with known answers.
1) COc1ccc([Si](C)(C)[C@H]2[C@H](CCO)O[C@@]3(C(=O)N(Cc4ccc(N(C=O)c5ccccc5)cc4)c4ccccc43)[C@@H]2C)cc1    0.151
2) CN(C)CCCCCCNC(=O)[C@H]1C[C@H]2C(=O)N[C@@H](CCCCN)C(=O)N2[C@H]1c1cccc(OCCO)c1    1.41
3) COC(=O)[C@@]1(CCC(=O)OC(C)(C)C)N=C(c2ccc(OCCCO)cc2)O[C@H]1c1ccccc1N=[N+]=[N-]    0.303
4) COc1ccc(C#Cc2ccc3c(c2)[C@]2(C(=O)N3)[C@H](C(=O)Nc3nc4ccccc4s3)[C@H]3C(=O)O[C@H](c4ccccc4)[C@H](c4ccccc4)N3[C@@H]2c2ccc(O)cc2)cc1    1.72
5) CN1C(=O)C2C=CC(C(O)c3ccccc3)N(N(c3ccccc3)c3ccccc3)C2C1=O (configuration not stated)    0.03
6) C=C(C)[C@@H]1CC=C(C(O)C2C=CC3C(=O)N(c4ccccc4)C(=O)C3N2Nc2ccccc2)CC1 (some centres not stated)    0.226

From here, focus on the item given below.
The reported composite z-score of the molecule CC(C)N1C(=O)c2ccccc2[C@](C)(C(=O)NCCN2CCOCC2)[C@@H]1c1ccc(CO)cc1 was -0.117
